Measurement Notes: In vitro metabolic stability in rat liver microsomes
Assay type: in vitro ADME
Conditions Used: male, rat, rat liver microsomes, pH 7.4; RLMs; 2 μM violacein, 1 mg/mL microsomal protein, NADPH-regenerating system, 37 °C; n = 3; read-out: In vitro elimination half-life (t1/2)
Endpoint: half-life at 2 µM (min)

• O=C1NC(c2c[nH]c3ccc(O)cc23)=C/C1=C1\C(=O)Nc2ccccc21 [violacein] = 36

---

Measurement Notes: in vitro
Assay type: in vitro ADME
Conditions Used: human, microsomes, pH 7.4, CLint, in vivo
Endpoint: CLint scaled at 2 µM (mL/min/kg)

* O=C1NC(c2c[nH]c3ccc(O)cc23)=C/C1=C1\C(=O)Nc2ccccc21 | 6.6
